The reported measurements were obtained from PubChem BioAssay (NCI).

- Tested on: TK-10 renal
- experimentDescription: NCI tumour cell line growth inhibition, 48 h
Where a SMILES comes first, the peptide text is derived from it. [ ]: non-standard residue; d: D form. The star is where a group is joined. ξ: configuration not given here. ξF = NC(Cc1ccccc1)C(=O)O; Cbz = O=C(OCc1ccccc1)*; Aib = CC(C)(N)C(=O)O; NHNH2 = NN*
measurementType: TGI

CC(=O)C(=[N+]=[N-])C(=O)N1CCOC1=O ... > 10 µM
Clc1ccccc1/C=c1\nc(-c2ccccc2)n2c1nc1ccccc12 ... > 100 µM
CN1C(=O)CCC1(O)C1C=CC=CC1 (stereo not drawn) ... > 100 µM
S=c1[nH]nc(CNc2ccc(-c3n[nH]c(=S)n3-c3ccc(Cl)cc3)cc2)n1-c1ccc(Cl)cc1 ... > 100 µM
CC(C)=CCC[C@@H](C)/C=C/C=C(\C)C(=O)CC[C@@H]1CC[N@+]2(C)CCCC[C@H]12 ... > 100 µM
CCN(CCCN(C)C)Cc1cc(I)cc(C)c1O ... 22.6 µM
O=c1oc2ccccc2nc1/C=C(\O)c1ccc(Cl)cc1 ... > 100 µM
c1ccc2sc(SCCSc3nc4ccccc4s3)nc2c1 ... > 100 µM
COc1cc(NS(C)(=O)=O)ccc1Nc1cc[nH]c2ccc3nccc3c12 ... 30.3 µM
CCN1C(=S)N(c2ccccc2)C2NC(=S)N(/N=C/C=C/c3ccccc3OC)C21 (stereo not drawn) ... > 100 µM
Cn1c2c(c3ccccc31)CCN(CCCCN1CCCCC1)C2=O ... > 100 µM
O=c1[nH]c(Nc2ccc(Cl)c(C(F)(F)F)c2)nc2nc[nH]c12 ... > 100 µM
CCc1n[nH]c(=O)n1/N=C/c1ccccc1O ... > 100 µM
O=C(NC1(c2cc3ccccc3s2)CCCCC1)C1CCC1 ... > 100 µM
N#CC(C(=O)c1cccnc1Cl)c1nc2cc(C(F)(F)F)ccc2s1 (stereo not drawn) ... > 100 µM
CN(C)c1ccc(C=Nc2ccc(-c3nc4ccccc4[nH]3)cc2)cc1 ... > 100 µM
CC(C)(Br)C(=O)N1CCN(C(c2ccccc2)c2ccccc2)CC1 ... > 100 µM
Nc1ncnc2c1sc1nc3ccccc3n12 ... > 100 µM
CC(C)C1C(=O)N(c2c(F)c(F)c(F)c(F)c2F)C(=S)N1CCS(=O)c1ccccc1 (stereo not drawn) ... 52 µM
N.N.N.N.N.[Co+3].[I-].[N-]=[N+]=[N-] ... > 100 µM
COCCNCc1ccc(-c2cc3nccc(Oc4ccc(NC(=S)NC(=O)Cc5ccc(F)cc5)cc4F)c3s2)nc1 ... 5.08 µM
O=C(c1ccccc1)c1c(CC(O)c2ccccn2)n(C(=O)c2ccccc2)c2ccccc12 (stereo not drawn) ... > 100 µM
O=C(CSc1nc2ccc([N+](=O)[O-])cc2s1)c1ccc2ccccc2c1 ... > 100 µM
COc1cc(/C=C\c2cc(OC)c(OC)c(OC)c2)cc(N/C=C\C(=O)c2ccc(OC(F)(F)F)cc2)c1OC ... > 100 µM
Cc1ccc(S(=O)(=O)OCCn2cnc3nc(NC(=O)c4ccccc4)[nH]c(=O)c32)cc1 ... > 100 µM
CC(ON(C(c1ccccc1)C(C)C)C(C)(C)C)c1ccccc1 (stereo not drawn) ... 46.2 µM
COc1cc(C2Cc3ncccc3-c3[nH]c(=O)c4cccnc4c32)cc(OC)c1OC (stereo not drawn) ... > 100 µM
C=CCn1c(-c2ccc([N+](=O)[O-])cc2)cs/c1=N\C(P(=O)(O)O)P(=O)(O)O ... > 100 µM
Cc1cc(NCCCCCCCCNc2cc(C)nc3cc(N)ccc23)c2ccc(N)cc2n1 ... > 100 µM
Oc1ccc(O)c(CNc2ccc(C(O)C(F)(F)F)cc2)c1 (stereo not drawn) ... 33.1 µM
COP(=O)(OC)C(=O)N1N(c2ccc([N+](=O)[O-])cc2)C(=O)C(C)NC1(NNc1ccc([N+](=O)[O-])cc1)P(=O)(OC)OC (stereo not drawn) ... > 100 µM
O=C(NCCCCCCCCCCCCNC(=O)c1cccc2ccccc12)c1cccc2ccccc12 ... > 87.1 µM
Cc1ccn2c(=O)cc(CN3CCOCC3)nc2c1 ... > 100 µM
O=C1CSC(/C=C/c2ccccc2)N1c1nc2cc3sc(N4C(=O)CSC4/C=C/c4ccccc4)nc3cc2s1 (stereo not drawn) ... > 100 µM
Cc1nc(N)c(N2CCN(C(=O)O)CC2)c(=O)[nH]1 ... > 100 µM
Cc1cn(C2CC(O)C(COC(=O)c3ccccc3)O2)c(=O)[nH]c1=O (stereo not drawn) ... > 100 µM
CC(C)(O)[C@@H]1CC[C@@]2(C)CCCC(O)C2(O)C1 (stereo partly drawn) ... > 100 µM
O=C1CSCc2sccc21 ... > 100 µM
O=c1[nH]c(=O)n(COCc2ccccc2)c2ccsc12 ... > 100 µM
COC(=O)/C(C#N)=C(\Nc1ccccc1)N1CCOCC1 ... > 100 µM
CC(C)(NC(=O)OCc1ccccc1)C(=O)NC(Cc1ccccc1)C(=O)NN (stereo not drawn) (Cbz-[Aib]-[ξF]-NHNH2) ... > 100 µM
CCN(Cc1ccc(C)cc1)c1ccc(CO)c(Cl)c1 ... 0.309 µM
NC1=CN(CCCO)C2=N/C(=C\c3ccccc3)C(=O)N12 ... > 100 µM
